# Test system: S. aureus RN4250 Tc^r
# experiment.description: Antibacterial activity in vitro, MIC by broth dilution
# Format: cell-based
# test.settings: S. aureus RN4250, tetracycline resistant, 18 hrs
quantity.measured: Antibacterial Activity (minimum inhibitory concentration)
Answers are plain numbers.

CN(C)C1C(O)=C(C(N)=O)C(=O)C2(O)C(O)=C3C(=O)c4c(O)c(-c5ccccc5)cc(-c5ccccc5)c4CC3CC12 (centres unmarked) : 0.78

Please tell me: Antibacterial Activity (minimum inhibitory concentration) of C[C@H]1c2cccc(O)c2C(=O)C2=C(O)[C@]3(O)C(=O)C(C(N)=O)=C(O)[C@@H](N(C)C)[C@@H]3[C@@H](O)[C@@H]21 [Doxy, reference compound] , system S. aureus RN4250 Tc^r?
25

* * *

# Test system: E. hirae 9790 with pAM211 Tc^r
# experiment.description: Antibacterial activity in vitro, MIC by broth dilution
# Format: cell-based
# test.settings: E. hirae 9790 with pAM211, tetracycline resistant, 18 hrs
quantity.measured: Antibacterial Activity (minimum inhibitory concentration)

Solved entries:
CCOc1ccc(C=C2c3cccc(O)c3C(=O)C3=C(O)C4(O)C(=O)C(C(N)=O)=C(O)C(N(C)C)C4C(O)C23)cc1 (stereo not shown) : 3.12
CN(C)[C@@H]1C(O)=C(C(N)=O)C(=O)C2(O)C(O)=C3C(=O)c4c(O)cccc4C(=Cc4cccc(C(=O)O)c4)C3C(O)C12 (stereo partly shown) : >50

Shift focus to the following entry.
Query: Antibacterial Activity (minimum inhibitory concentration); subject: CC1c2ccc(/C=C/C(=O)O)c(O)c2C(=O)C2=C(O)C3(O)C(=O)C(C(N)=O)=C(O)[C@@H](N(C)C)C3C(O)C21 (stereo partly shown)
>50

* * *

# Tested on: S. aureus RN4250 Tc^r
# experiment.description: Antibacterial activity in vitro, MIC by broth dilution
# Assay type: cell-based
# test.settings: S. aureus RN4250, tetracycline resistant, 18 hrs
quantity.measured: Antibacterial Activity (minimum inhibitory concentration)

CN(C)[C@@H]1C(O)=C(C(N)=O)C(=O)C2(O)C(O)=C3C(=O)c4c(O)cccc4C(=Cc4cccc(C(=O)O)c4)C3C(O)C12 (stereo partly drawn) [J] : >50

Please tell me: Antibacterial Activity (minimum inhibitory concentration) of CC1c2ccc(/C=C/C(=O)O)c(O)c2C(=O)C2=C(O)C3(O)C(=O)C(C(N)=O)=C(O)[C@@H](N(C)C)C3C(O)C21 (stereo partly drawn) [D] , system S. aureus RN4250 Tc^r?
>50
